Tested on: HOP-18
test-details: NCI tumour cell line growth inhibition, 48 h
Calls of active or inactive are those of the source. No stated cut-off is given here; in the data, active = GI50 up to about 1.1 µM and inactive = higher.
The categories you may choose from are true (active), false (inactive)

A selection of reference data follows.
molecule: Cc1cccc(O)c(=O)c1
class-label: false
//
molecule: O=c1sc(-c2nc3ccccc3[nH]2)c(/N=C/c2ccccc2)n1-c1ccccc1
class-label: false
//
molecule: Cc1nc(-n2nc(-c3ccccc3)cc2-c2ccccc2)sc1C(=O)/C=C/c1cccc([N+](=O)[O-])c1
class-label: false
//
molecule: COC(=O)C[C@](O)(CCC(C)(C)O)C(=O)O[C@@H]1C(OC)=C[C@]23CCCN2CCc2cc4c(cc2[C@H]13)OCO4
class-label: true
//
molecule: C/C(CC(=O)CCCC(=O)Nc1ccc(Cl)cc1Cl)=N/NC(=O)CC#N
class-label: false

*Q* Could you check what this test reported for O=c1[nH]c2c(O)cccc2c2cc3c(c(O)c12)OCO3 ?
*A* true

*Q* Short answer needed: outcome of this test for CSC(C1c2ccccc2N(C)C2=NC(=O)N(C)C(=O)C21Cl)S(=O)(=O)c1ccc(C)cc1 (stereo not given) ?
*A* false

====

System: PC-3
test-details: NCI tumour cell line growth inhibition, 48 h
Activity calls are given as the source filed them. Rule as the data show it: active = GI50 up to about 1.1 µM and inactive = higher.
quantity-measured: GI50

molecule: COc1ccc(-c2nc(N(C)C)c3ccccc3n2)cc1
GI50: 24 µM (inactive)

*Q* Notebook entry, PC-3 assay: GI50 of COc1cc(C2c3cccc4cccc(c34)C3CCC(=O)N32)cc(O)c1O (stereo not given) = ?
*A* 34.4 µM (inactive)

*Q* Provide value of GI50 for this record tested with PC-3: O=C1CC[C@@]23CC(=O)O[C@@H]2CCCC3C1 (stereo not given in full)
*A* > 100 µM (inactive)

*Q* # get_value(readout= GI50, system= PC-3) for COC(=O)c1ccc2c(O)c(O)ccc2c1
*A* 5.6 µM (inactive)

*Q* // map CNC(=O)CCCN(C)C(=O)CCCCC(=O)N(C)C to recorded GI50 (system: PC-3)
*A* > 54.3 µM (inactive)

*Q* Form field - read-out: GI50; system: PC-3; submitted item: CC(=O)NNC(=O)C1CCCCN1 (stereo not given)
*A* > 100 µM (inactive)

*Q* Kindly state the measured GI50 obtained for O=C1CNCCCN2CCN(CCCNCC(=O)Nc3ccc(cc3)S(=O)(=O)c3ccc(cc3)NC(=O)CNCCCN3CCN(CCCNCC(=O)Nc4ccc(cc4)S(=O)(=O)c4ccc(cc4)N1)CC3)CC2 with PC-3.
*A* 42.3 µM (inactive)

*Q* Hello, I am looking for reported GI50 with PC-3 for O=C(OCc1ccccc1[N+](=O)[O-])N1c2ccccc2[C@@]23O[C@]24CCC[C@H]3C#C/C=C\C#C[C@H]14 . Could you help?
*A* 14.8 µM (inactive)

*Q* Recall the recorded GI50 for CC(C)=CC(=O)C[C@H]1C(=O)O[C@@H]2C[C@H]3C(C)=CC(=O)[C@@H](O)[C@]3(C)[C@H]3[C@@]4(O)OC[C@]32[C@@H]1[C@@H](C)[C@H]4O with PC-3 and state it.
*A* 0.0159 µM (active)

*Q* Form field: GI50 recorded for NCCCCC(N)C(=O)N1CCN(c2nc(N3CCCC3)c3nc(Cl)c(NCc4ccccc4)nc3n2)CC1 (stereo not given) with PC-3 (enter value)
*A* 17.8 µM (inactive)

Source listed as ChEMBL document CHEMBL1201862.
